Origin of the recorded values: patent US12162902B2

Target: Tyrosine decarboxylase (tdc) (Enterococcus faecalis (strain EnGen0310 / MMH594))
Sequence (P0DTQ4 whole entry): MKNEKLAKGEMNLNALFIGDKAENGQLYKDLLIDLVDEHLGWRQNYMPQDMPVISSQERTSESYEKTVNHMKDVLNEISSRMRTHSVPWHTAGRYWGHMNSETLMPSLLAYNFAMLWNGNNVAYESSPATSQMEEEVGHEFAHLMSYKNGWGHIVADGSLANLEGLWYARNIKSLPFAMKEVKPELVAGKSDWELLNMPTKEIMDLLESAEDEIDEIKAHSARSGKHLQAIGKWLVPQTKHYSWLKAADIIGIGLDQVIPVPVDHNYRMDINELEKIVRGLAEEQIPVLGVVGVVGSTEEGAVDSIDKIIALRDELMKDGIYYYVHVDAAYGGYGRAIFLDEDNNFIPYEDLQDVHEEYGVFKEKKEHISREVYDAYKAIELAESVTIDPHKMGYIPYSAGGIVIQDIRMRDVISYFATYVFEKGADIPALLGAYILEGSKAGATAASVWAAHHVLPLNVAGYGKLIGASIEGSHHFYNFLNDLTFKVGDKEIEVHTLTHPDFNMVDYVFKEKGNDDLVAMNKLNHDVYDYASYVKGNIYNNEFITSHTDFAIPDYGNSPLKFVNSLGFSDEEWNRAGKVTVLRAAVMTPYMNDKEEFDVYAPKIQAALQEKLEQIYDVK
Assay: Inhibition of tyrosine decarboxylase in vitro (dopamine formed from levodopa, LC-MS)
Format: biochemical
Conditions: 60 min preincubation of tdc with inhibitor at room temperature, pH 5.5; 9 mM levodopa, 5 min reaction; read-out: IC50 @ 60 min
Measured Quantity: IC50 (µM)
Form entry: value (µM) — number only.

Sample answers from the record:
Molecule	Unit Name	IC50
NC(CF)(Cc1ccc(O)c(Cl)c1)C(=O)O (centres unmarked)	µM	2.5
NC(CF)(Cc1ccc(O)cc1)C(=O)O (single isomer, unassigned) [T]	µM	82.3
Cc1cc(CC(N)(CF)C(=O)O)ccc1O (centres unmarked)	µM	2.6

What IC50 appears in the records for this molecule with Tyrosine decarboxylase (tdc) (Enterococcus faecalis (strain EnGen0310 / MMH594))? NC(CF)(Cc1ccc(O)c(F)c1)C(=O)O (centres unmarked)
3.2

Provide the documented IC50 with Tyrosine decarboxylase (tdc) (Enterococcus faecalis (strain EnGen0310 / MMH594)) as the system for NC(CF)(Cc1ccc(O)cc1)C(=O)O (single isomer, unassigned) [S]
4
